Target: UniProt:P21453
Assay: S1P1R antagonist assay (fluorescent membrane potential dye, cAMP readout)
Conditions: HEK293 cells expressing human S1P1 receptors and CNG channel; 500 nM NECA; S1P1R agonist 10 nM; 90 minutes; read-out: EC50 or IC50 value
Value Kind: IC50

Solved cases (6 shown):
O=C(NC(COCc1ccccc1)C(=O)Nc1ccc(Oc2ccccc2)cc1)c1ccsc1 (stereo not shown): 300 to 1000 nM
O=C(CCC1CCCC1)NC(COCc1ccccc1)C(=O)Nc1ccc(Oc2ccccc2)cc1 (stereo not shown): > 1000 nM
O=C(Nc1ccc(Oc2ccc(F)cc2)cc1)[C@@H]1C[C@@H](Cc2ccc(F)cc2Cl)CN1C(=O)Cn1nccn1: ≤ 300 nM
O=C(Cc1ccccc1F)NC(COCc1ccccc1)C(=O)Nc1ccc(Oc2ccccc2)cc1 (stereo not shown): 300 to 1000 nM
O=C(CN1CCC(N2CCCC2)CC1)N[C@@H](COCc1ccccc1)C(=O)Nc1ccc(Oc2ccc(F)cc2)cc1: > 1000 nM
O=C(NC(COCc1ccccc1)C(=O)Nc1ccc(Oc2ccccc2)cc1)c1ccc(C(F)(F)F)cc1C(F)(F)F (stereo not shown): 300 to 1000 nM

Let us examine a further case.
-- ask Write down IC50 measured for item O=C(Nc1ccc(Oc2ccc(F)cc2)cc1)[C@@H]1C[C@@H](Cc2ccccc2)CN1C(=O)Cc1c(F)cccc1F
-- reply ≤ 300 nM

----------
Biological target: UniProtKB P21453
Test: S1P1R antagonist assay (fluorescent membrane potential dye, cAMP readout)
Details: HEK293 cells expressing human S1P1 receptors and CNG channel; 500 nM NECA; S1P1R agonist 10 nM; 90 minutes; read-out: EC50 or IC50 value
Experimental: The S1P1R antagonist assay is a fluorescent membrane potential dye measurement assay, indicative of intracellular cAMP changes due to G protein-coupled receptor activation. […] Membrane depolarization is detected with a membrane potential dye. […] Assay plates were read with a PerkinElmer EnVision reader (Excitation 350 nm, Emission 590 nm) at time T=0 minutes, before compound addition and at time T=90 minutes. The signal was calculated as the ratio T90/T0. […]
pIC50: −log10 of the molar value.
// pIC50 lookup, one value per entry

Solved cases (2 shown):
O=C(Cc1c[nH]cn1)N[C@@H](COCc1ccc(F)cc1)C(=O)Nc1ccc(Oc2ccc(Br)cc2)cc1 [Compound 168]: ≥ 6.52
O=C(Nc1ccc(Oc2ccc(F)cc2)cc1)[C@@H]1C[C@@H](Cc2ccccc2)CN1C(=O)CN1C(=O)CSC1=S [Compound 99]: ≥ 6.52

-- ask Write down pIC50 measured for item O=C(Nc1ccc(Oc2ccc(F)cc2)cc1)[C@@H]1C[C@@H](Cc2ccccc2)CN1C(=O)C1CCCO1 (some centres unmarked) [Compound 92]
-- reply ≥ 6.52

-- ask Write down pIC50 measured for item O=C(Nc1ccc(Oc2ccc(F)cc2)cc1)[C@@H]1C[C@@H](Cc2ccc(Cl)s2)CN1C(=O)Cn1cncn1 [Compound 67]
-- reply ≥ 6.52

-- ask Write down pIC50 measured for item O=C(CN1CCSC1)N[C@@H](COCc1ccccc1)C(=O)Nc1ccc(Oc2ccc(F)cc2)cc1 [Compound 235]
-- reply 6.00 to 6.52

-- ask Write down pIC50 measured for item O=C(Cc1cnc[nH]1)N[C@@H](COCc1ccccc1)C(=O)Nc1ccc(Oc2cccc(Cl)c2)cc1 [Compound 148]
-- reply ≥ 6.52

-- ask Write down pIC50 measured for item O=C(CN1C(=O)CSC1=S)NC(COCc1ccccc1)C(=O)Nc1ccc(Oc2ccccc2)cc1 (centres unmarked) [Compound 335]
-- reply < 6.00

----------
// pIC50 lookup, one value per entry
Biological target: human S1P1 receptors (Homo sapiens)
Experiment: S1P1R antagonist assay (fluorescent membrane potential dye, cAMP readout)
Conditions: HEK293 cells expressing human S1P1 receptors and CNG channel; 500 nM NECA; S1P1R agonist 10 nM; 90 minutes; read-out: EC50 or IC50 value
Description: The S1P1R antagonist assay is a fluorescent membrane potential dye measurement assay, indicative of intracellular cAMP changes due to G protein-coupled receptor activation. […] Membrane depolarization is detected with a membrane potential dye. […] Assay plates were read with a PerkinElmer EnVision reader (Excitation 350 nm, Emission 590 nm) at time T=0 minutes, before compound addition and at time T=90 minutes. The signal was calculated as the ratio T90/T0. […]
pIC50: −log10 of the molar value.

O=C(CCCc1cccs1)NC(COCc1ccccc1)C(=O)Nc1ccc(Oc2ccccc2)cc1 (stereo not shown): 6.00 to 6.52

-- ask Write down pIC50 measured for item O=C(Nc1ccc(Oc2ccc(F)cc2)cc1)[C@@H]1C[C@@H](Cc2cccc(Cl)c2)CN1C(=O)Cn1nccn1
-- reply ≥ 6.52

-- ask Write down pIC50 measured for item O=C(Cc1ccccc1Br)NC(COCc1ccccc1)C(=O)Nc1ccc(Oc2ccccc2)cc1 (stereo not shown)
-- reply 6.00 to 6.52

-- ask Write down pIC50 measured for item C[C@@H](C(=O)NC(COCc1ccccc1)C(=O)Nc1ccc(Oc2ccccc2)cc1)c1ccccc1 (stereo partly shown)
-- reply 6.00 to 6.52

-- ask Write down pIC50 measured for item O=C(Nc1ccc(Oc2ccc(F)cc2)cc1)[C@@H]1C[C@@H](Cc2c(F)cc(F)cc2F)CN1C(=O)Cn1nccn1
-- reply ≥ 6.52

-- ask Write down pIC50 measured for item O=C(NC(COCc1ccccc1)C(=O)Nc1ccc(Oc2ccccc2)cc1)c1cnc2ccccc2c1 (stereo not shown)
-- reply < 6.00

-- ask Write down pIC50 measured for item O=C(CN1CCN(Cc2c(F)cccc2Cl)CC1)N[C@@H](COCc1ccccc1)C(=O)Nc1ccc(Oc2ccc(F)cc2)cc1
-- reply ≥ 6.52

----------
Biological target: human S1P1 receptors (Homo sapiens, UniProt P21453)
Sequence (P21453 whole entry): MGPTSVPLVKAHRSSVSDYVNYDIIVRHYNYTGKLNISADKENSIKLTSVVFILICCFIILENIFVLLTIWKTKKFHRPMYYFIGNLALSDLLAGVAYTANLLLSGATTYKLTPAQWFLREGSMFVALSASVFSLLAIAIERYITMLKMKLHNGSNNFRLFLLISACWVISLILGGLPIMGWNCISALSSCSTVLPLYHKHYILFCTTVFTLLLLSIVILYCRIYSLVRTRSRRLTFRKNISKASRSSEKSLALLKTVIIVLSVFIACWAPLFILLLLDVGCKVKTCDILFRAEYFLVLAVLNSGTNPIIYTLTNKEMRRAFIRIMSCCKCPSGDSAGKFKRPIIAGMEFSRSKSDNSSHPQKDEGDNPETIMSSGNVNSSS
Experiment: S1P1R antagonist assay (fluorescent membrane potential dye, cAMP readout)
Conditions: HEK293 cells expressing human S1P1 receptors and CNG channel; 500 nM NECA; S1P1R agonist 10 nM; 90 minutes; read-out: EC50 or IC50 value
pIC50: −log10 of the molar value.
Value Kind: pIC50

Solved cases (3 shown):
O=C(NC(COCc1ccccc1)C(=O)Nc1ccc(Oc2ccccc2)cc1)c1nc2ccccc2nc1O (stereo not shown): < 6.00
O=C(Nc1ccc(Oc2ccc(F)cc2)cc1)[C@@H]1C[C@@H](Cc2ccccc2F)CN1C(=O)Cn1nccn1: ≥ 6.52
O=C(Nc1ccc(Oc2ccc(F)cc2)cc1)[C@@H]1C[C@@H](Cc2ccc(F)c(F)c2)CN1C(=O)Cn1ccnn1: ≥ 6.52

-- ask Write down pIC50 measured for item O=C(CCCCCN1C(=O)C=CC1=O)NC(COCc1ccccc1)C(=O)Nc1ccc(Oc2ccccc2)cc1 (stereo not shown)
-- reply < 6.00

-- ask Write down pIC50 measured for item COCCC(=O)NC(COCc1ccccc1)C(=O)Nc1ccc(Oc2ccccc2)cc1 (stereo not shown)
-- reply < 6.00

-- ask Write down pIC50 measured for item O=C(Cc1cnc[nH]1)N[C@@H](CCCc1ccccc1)C(=O)Nc1ccc(Oc2ccc(F)cc2)cc1
-- reply ≥ 6.52

-- ask Write down pIC50 measured for item O=C(Nc1ccc(Oc2ccc(F)cc2)cc1)[C@@H]1C[C@@H](Oc2ccccc2)CN1C(=O)Cn1cncn1
-- reply 6.00 to 6.52

----------
Target: human S1P1 receptors (Homo sapiens)
Construct: host or cells: HEK293
Test: S1P1R antagonist assay (fluorescent membrane potential dye, cAMP readout)
Assay type: cell-based
Conditions: HEK293 cells expressing human S1P1 receptors and CNG channel; 500 nM NECA; S1P1R agonist 10 nM; 90 minutes; read-out: EC50 or IC50 value
// IC50 lookup, one value per entry

Solved cases (5 shown):
CCOCC(=O)N1C[C@H](Cc2ccccc2)C[C@H]1C(=O)Nc1ccc(Oc2ccc(F)cc2)cc1 [Compound 121]: ≤ 300 nM
O=C(COc1ccc(Cl)c(Cl)c1)NC(COCc1ccccc1)C(=O)Nc1ccc(Oc2ccccc2)cc1 (centres unmarked) [Compound 370]: 300 to 1000 nM
O=C(CN1CCN(c2ccccc2)CC1)N[C@@H](COCc1ccccc1)C(=O)Nc1ccc(Oc2ccc(F)cc2)cc1 [Compound 225]: 300 to 1000 nM
COc1ccc(F)cc1C(=O)NC(COCc1ccccc1)C(=O)Nc1ccc(Oc2ccccc2)cc1 (centres unmarked) [Compound 308]: > 1000 nM
O=C(CCc1cccnc1)NC(COCc1ccccc1)C(=O)Nc1ccc(Oc2ccccc2)cc1 (centres unmarked) [Compound 369]: > 1000 nM

-- ask GET IC50 | system: human S1P1 receptors (Homo sapiens) | item: CC(C)(C(=O)N[C@@H](COCc1ccccc1)C(=O)Nc1ccc(Oc2ccc(F)cc2)cc1)c1c[nH]cn1 [Compound 213]
-- reply ≤ 300 nM

-- ask GET IC50 | system: human S1P1 receptors (Homo sapiens) | item: COCCN1CCN(CC(=O)N2C[C@H](Cc3ccccc3)C[C@H]2C(=O)Nc2ccc(Oc3ccc(F)cc3)cc2)CC1 [Compound 100]
-- reply ≤ 300 nM

-- ask GET IC50 | system: human S1P1 receptors (Homo sapiens) | item: CC(O)CC(=O)N1C[C@H](Cc2ccccc2)C[C@H]1C(=O)Nc1ccc(Oc2ccc(F)cc2)cc1 (some centres unmarked) [Compound 118]
-- reply ≤ 300 nM
